Target: Carbonic anhydrase 1 (Homo sapiens, UniProt P00915)
Sequence (P00915 whole entry): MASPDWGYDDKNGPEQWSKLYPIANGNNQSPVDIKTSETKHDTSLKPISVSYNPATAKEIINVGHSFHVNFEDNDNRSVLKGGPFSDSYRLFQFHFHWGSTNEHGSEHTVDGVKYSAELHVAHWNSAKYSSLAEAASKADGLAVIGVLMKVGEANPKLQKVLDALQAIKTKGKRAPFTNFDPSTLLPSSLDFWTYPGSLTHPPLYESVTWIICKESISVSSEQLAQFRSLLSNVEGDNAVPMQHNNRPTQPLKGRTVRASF
Metric name: Ki (µM)
Give a bare numeral; the unit µM is implied.

Ki lookup needed for CN(C)c1ccccc1/C=N/NC(=O)Nc1n[nH]c(=S)s1 , thanks. 125

###

List of pKi values.
Biological target: Carbonic anhydrase 2 (Homo sapiens, UniProt P00918)
Entry type: numeric. Quantity: pKi, the -log10 of concentration in molar units.

For orientation, consider the following solved cases.
# Chemical smiles, pKi
data = [
    ("COc1ccc(/C=N/NC(=O)Nc2n[nH]c(=S)s2)cc1", 3.46),
    ("COc1ccc(/C(C)=N/NC(=O)Nc2n[nH]c(=S)s2)cc1", 3.46),
    ("C/C(=N\\NC(=O)Nc1n[nH]c(=S)s1)c1ccc(O)cc1", 3.46),
]

From here, focus on the item given below.
pKi lookup needed for O=C(N/N=C/c1cccc(Br)c1)Nc1n[nH]c(=S)s1 , thanks. 3.63

###

Below are pKi values recorded for Carbonic anhydrase 9 (Homo sapiens).
Entry type: numeric. Quantity: pKi, the -log10 of concentration in molar units.

For orientation, consider the following solved cases.
# Chemical smiles, pKi
data = [
    ("COc1cc(/C=N/NC(=O)Nc2n[nH]c(=S)s2)ccc1O", 4.59),
    ("CN(C)c1ccccc1/C=N/NC(=O)Nc1n[nH]c(=S)s1", 5.47),
    ("O=C(NN=C1C(=O)Nc2ccc(Br)cc21)Nc1nnc(S)s1", 5.14),
    ("O=C(N/N=C/c1ccccc1)Nc1n[nH]c(=S)s1", 4.64),
    ("C/C(=N\\NC(=O)Nc1n[nH]c(=S)s1)c1ccccc1", 5.13),
    ("O=C(N/N=C/c1cccc(Br)c1)Nc1n[nH]c(=S)s1", 5.00),
]

pKi lookup needed for O=C(N/N=C/c1ccco1)Nc1n[nH]c(=S)s1 , thanks. 5.24

Also check COc1ccc(/C=N/NC(=O)Nc2n[nH]c(=S)s2)cc1 4.62

Also check O=C(N/N=C/c1ccc(Cl)cc1)Nc1n[nH]c(=S)s1 3.93

Also check O=C(N/N=C/c1ccc(Br)cc1)Nc1n[nH]c(=S)s1 4.66

Also check COc1ccc(/C(C)=N/NC(=O)Nc2n[nH]c(=S)s2)cc1 4.70

Also check C/C(=N\NC(=O)Nc1n[nH]c(=S)s1)c1ccc(Br)cc1 5.16

###

Below are pKi values recorded for Carbonic anhydrase 9 (Homo sapiens).
Entry type: numeric. Quantity: pKi, the -log10 of concentration in molar units.

For orientation, consider the following solved cases.
# Chemical smiles, Tested on, pKi
data = [
    ("COc1cccc(/C=N/NC(=O)Nc2n[nH]c(=S)s2)c1", "Carbonic anhydrase 9 (Homo sapiens)", 5.15),
    ("C/C(=N\\NC(=O)Nc1n[nH]c(=S)s1)c1ccc(C)cc1", "Carbonic anhydrase 9 (Homo sapiens)", 3.83),
]

pKi lookup needed for C/C(=N\NC(=O)Nc1n[nH]c(=S)s1)c1ccc([N+](=O)[O-])cc1 , thanks. 5.12
